Property: Emax; scope: individual compounds
Measurement Target: ΔF508-CFTR (Homo sapiens, UniProt P13569, DEL508-508)
Construct: expressed in transfected cells
Sequence (P13569 with tags, fused parts or gaps DEL508-508): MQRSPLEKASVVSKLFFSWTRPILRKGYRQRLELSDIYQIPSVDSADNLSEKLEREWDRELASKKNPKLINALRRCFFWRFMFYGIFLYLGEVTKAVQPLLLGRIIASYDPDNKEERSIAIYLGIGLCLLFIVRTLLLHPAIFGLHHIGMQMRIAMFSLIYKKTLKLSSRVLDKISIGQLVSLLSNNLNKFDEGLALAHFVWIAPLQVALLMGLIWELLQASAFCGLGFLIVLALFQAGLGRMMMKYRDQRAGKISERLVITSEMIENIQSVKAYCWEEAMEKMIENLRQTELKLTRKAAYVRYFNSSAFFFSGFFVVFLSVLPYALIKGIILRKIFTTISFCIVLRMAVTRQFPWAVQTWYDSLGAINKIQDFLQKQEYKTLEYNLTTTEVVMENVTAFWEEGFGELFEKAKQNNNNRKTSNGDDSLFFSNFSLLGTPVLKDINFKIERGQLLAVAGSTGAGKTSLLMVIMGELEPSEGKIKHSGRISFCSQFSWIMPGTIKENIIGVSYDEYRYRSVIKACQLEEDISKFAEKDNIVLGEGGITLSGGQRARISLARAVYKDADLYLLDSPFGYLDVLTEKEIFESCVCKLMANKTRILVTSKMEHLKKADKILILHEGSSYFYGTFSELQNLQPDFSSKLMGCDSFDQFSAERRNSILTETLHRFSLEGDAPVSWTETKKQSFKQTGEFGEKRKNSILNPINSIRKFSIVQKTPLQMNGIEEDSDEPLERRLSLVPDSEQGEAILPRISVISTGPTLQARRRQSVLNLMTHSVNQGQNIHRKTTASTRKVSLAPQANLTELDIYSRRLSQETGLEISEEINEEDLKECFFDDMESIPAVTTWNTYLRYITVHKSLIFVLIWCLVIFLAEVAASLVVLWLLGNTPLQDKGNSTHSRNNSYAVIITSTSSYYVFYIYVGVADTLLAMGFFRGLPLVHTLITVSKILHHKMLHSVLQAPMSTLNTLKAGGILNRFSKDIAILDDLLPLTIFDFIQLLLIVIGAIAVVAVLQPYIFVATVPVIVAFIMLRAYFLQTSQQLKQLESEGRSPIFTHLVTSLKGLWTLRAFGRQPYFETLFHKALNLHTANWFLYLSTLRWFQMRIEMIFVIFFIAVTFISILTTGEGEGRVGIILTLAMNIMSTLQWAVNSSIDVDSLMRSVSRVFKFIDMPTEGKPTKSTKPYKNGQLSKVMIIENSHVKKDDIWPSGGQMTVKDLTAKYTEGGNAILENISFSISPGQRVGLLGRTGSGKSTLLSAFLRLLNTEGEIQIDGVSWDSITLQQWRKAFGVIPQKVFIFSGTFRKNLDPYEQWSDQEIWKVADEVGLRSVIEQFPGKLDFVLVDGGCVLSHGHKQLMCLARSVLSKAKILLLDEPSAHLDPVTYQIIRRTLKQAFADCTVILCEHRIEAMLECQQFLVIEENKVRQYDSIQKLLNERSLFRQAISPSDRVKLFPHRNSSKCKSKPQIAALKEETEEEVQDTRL
Assay Overview: Membrane potential optical assay (FRET voltage-sensor dyes, VIPR), identification of potentiator compounds
Format: cell-based
Assay Conditions: Table 3; assay not given; read-out: % Activity (% Efficacy, relative efficacy)

Compound	Emax
O=C(Nc1cc2[nH]ccc2cc1C(F)(F)F)c1c[nH]c2ccccc2c1=O [Compound 234]	25 to 100%
CC(C)c1ccc(NC(=O)c2c[nH]c3ccccc3c2=O)cc1N(C)C [Compound 117]	25 to 100%
CCC1(c2ccc(NC(=O)c3c[nH]c4ccccc4c3=O)cc2)CCC(=O)NC1=O (stereo not drawn) [Compound 57]	> 100%
COC(=O)c1ccc(-c2ccccc2NC(=O)c2c[nH]c3ccccc3c2=O)cc1 [Compound 166]	25 to 100%
O=C(Nc1ccccc1-c1ccc(Cl)cc1)c1c[nH]c2ccccc2c1=O [Compound 424]	25 to 100%
O=C(Nc1cc(O)c(C23CC4CC(CC(C4)C2)C3)cc1F)c1cnc2ccccc2c1O [Compound 395]	25 to 100%
O=C(Nc1cccc2c1Cc1ccccc1-2)c1c[nH]c2ccccc2c1=O [Compound 18]	25 to 100%
COc1ccc(NC(=O)c2c[nH]c3ccccc3c2=O)cn1 [Compound 162]	< 25%
O=C(Nc1cc(N2CCCCC2)cc(C(F)(F)F)c1)c1c[nH]c2ccccc2c1=O [Compound 488]	25 to 100%
O=C(Nc1ccccc1-c1ccccc1)c1c[nH]c2cc(C(F)(F)F)ccc2c1=O [Compound 469]	25 to 100%
O=C(Nc1ccccc1-c1cc2ccccc2s1)c1c[nH]c2ccccc2c1=O [Compound 172]	25 to 100%
COc1cccc(-c2ccccc2NC(=O)c2c[nH]c3ccccc3c2=O)c1F [Compound 363]	> 100%
O=C(Nc1ccccc1-c1csc2ccccc12)c1c[nH]c2ccccc2c1=O [Compound 417]	25 to 100%
CCc1ccc(NC)cc1NC(=O)c1c[nH]c2ccccc2c1=O [Compound 157]	25 to 100%
O=C(Nc1ccc2cc(C(F)(F)F)[nH]c2c1)c1c[nH]c2cccc(O)c2c1=O [Compound 693]	25 to 100%
CCc1cc2cc[nH]c2cc1NC(=O)c1c[nH]c2cccc(O)c2c1=O [Compound 591]	25 to 100%
O=C(Nc1ccccc1-c1ccccc1C(F)(F)F)c1c[nH]c2ccccc2c1=O [Compound 11]	25 to 100%
O=C(Nc1ccc2c(c1)OC(F)(F)O2)c1c[nH]c2ccccc2c1=O [Compound 66]	25 to 100%
